Numbers sourced from patent US20240409645A1.

// reported koff per item
- measuredTarget: T1, human common cytokine receptor γ-chain (IL-2Rγ) (human, UniProt P31785 23-262, limits assumed)
- T1 construct: Recombinant human IL-2Rγ protein, coated (ELISA) or amine-coupled to a CM5 chip (SPR); also called hu IL-2R; CD132
- T1 sequence: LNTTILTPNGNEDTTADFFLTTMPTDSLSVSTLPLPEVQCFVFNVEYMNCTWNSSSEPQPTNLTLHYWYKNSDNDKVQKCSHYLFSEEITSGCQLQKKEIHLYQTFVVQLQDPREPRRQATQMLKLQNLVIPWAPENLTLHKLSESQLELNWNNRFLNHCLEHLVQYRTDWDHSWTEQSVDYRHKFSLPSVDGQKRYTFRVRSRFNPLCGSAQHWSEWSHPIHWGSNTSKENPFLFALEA
- procedureText: P.E. off-rate SPR
Give the number; s⁻¹ is assumed, so skip it.

In the examples that follow, each entry is paired with its recorded koff.
Input: Consider the binder FJ1427_P035MP07G05 (VHH, tested as periplasmic extract; also called Clone nr) VHH: QVQLVESGGGLVQAGGSLRLSCAASGRTLSRYAMGWFRQAPGKEREFVAADSWGGDTYYADSVEGRFTFSRDNANNAVYLQMNSLQPEDTAVYYCAAAPTSFATTAYSSSNSYAYWGQGTQVTVSS and give its measured koff.
Output: 0.00257

Input: Consider the binder FJ1427_P035MP07G07 (VHH, tested as periplasmic extract; also called Clone nr) VHH: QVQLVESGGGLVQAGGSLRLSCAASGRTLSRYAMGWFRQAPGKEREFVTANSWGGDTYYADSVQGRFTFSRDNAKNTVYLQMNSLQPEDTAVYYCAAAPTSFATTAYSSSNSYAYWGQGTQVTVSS and give its measured koff.
Output: 0.00273

Input: Consider the binder FJ1427_P035MP07F05 (VHH, tested as periplasmic extract; also called Clone nr) VHH: EVQLVESGGGLVQAGGSLRLSCAASGRTLSRYAMGWFRQAPGREREFVTANSWGGDTYYADSVQGRFTFSRDNAKNTVYLQMNSLQPEDTAVYYCAAAPTSFATTAYSSSNSYAYWGQGTQVTVSS and give its measured koff.
Output: 0.00323

Proceed to the following item.
Input: Consider the binder FJ1427_P035MP07H10 (VHH, tested as periplasmic extract; also called Clone nr; 656) VHH: EVQLVESGGGLVQAGGSLRLSCAASGRALSRLAMGWFRQAPGKEREFVVASSWGDDTFYADSVKGRFTFSRDNAKNTVYLQMNSLQPGDTAVYYCAAAPTSFATTAYSSSNSYAYWGQGTQVTVSS and give its measured koff.
Output: 0.00236
